Biological target: T1, His-Lia3 (Tetrahymena thermophila, UniProt A3F815 1-322)
T1 sequence: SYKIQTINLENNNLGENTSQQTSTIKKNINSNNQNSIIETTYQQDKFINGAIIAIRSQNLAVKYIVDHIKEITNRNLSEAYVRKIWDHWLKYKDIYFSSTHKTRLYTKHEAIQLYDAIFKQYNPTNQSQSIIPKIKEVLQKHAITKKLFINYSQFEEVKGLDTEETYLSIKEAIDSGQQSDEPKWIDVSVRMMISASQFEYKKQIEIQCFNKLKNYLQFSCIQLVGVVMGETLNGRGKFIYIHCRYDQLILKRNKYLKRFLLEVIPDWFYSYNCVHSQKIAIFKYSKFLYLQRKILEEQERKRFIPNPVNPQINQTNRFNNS
Assay: EMSA; 100 mM KCl; EMSA: 10 mM Tris pH 7.5, 1 mM EDTA, 0.1 mM DTT, 5% glycerol, 0.010 mg/ml BSA, 100 mM KCl (or 100 mM LiCl to limit G4), 4 nM probe, RT
Details: protein: recombinant; tags: N-terminal His; label: 32P (5' PNK); mixed G4 (100 mM KCl)
endpoint.name: pKd
Give bare numbers, as −log10 of the molar value.

Record summary for TTGGGGTTGGGGTTGGGGTTGGGG (structured_DNA) [G4 Tetrahymena telomere] : reported pKd = 4.94

Data origin, for the record: paper PMC4780704
